System: GM00371 cells
Test: Viability assay (Cell titer glo) in the 3-HIB assay
Assay type: cell-based, human
Conditions: 24 hours, read-out: 3HIB INHIBITION IC50 (μM) MEAN GM00371 cells Viablility Assay
parameterMeasured: IC50

Example compounds with recorded IC50:
1) CNC(=O)c1ccc2c(c1)nc(-c1ccccc1C#N)n2[C@H]1CCC[C@@H](NC(=O)c2ccc(Br)s2)C1 :: 0.1 to 0.5 µM
2) CNC(=O)c1ccc2c(c1)nc(-c1ccccc1C#N)n2[C@H]1CCC[C@@H](NC(=O)c2ccc(C#N)s2)C1 :: ≥ 1 µM
3) CNC(=O)c1ccc2c(c1)nc(-c1ccccn1)n2[C@@H]1CCC[C@H](NC(=O)c2ccc(Br)s2)C1 :: 0.5 to 1 µM

Please examine the following record next.
Entry CNC(=O)c1ccc2c(c1)nc(-c1c(F)cccc1F)n2[C@H]1CCC[C@@H](NC(=O)c2ccc(Br)s2)C1 has what IC50?
0.1 to 0.5 µM
